Biological target: ZFP SBS#320 (synthetic)
Sequence (chain, as listed by the source): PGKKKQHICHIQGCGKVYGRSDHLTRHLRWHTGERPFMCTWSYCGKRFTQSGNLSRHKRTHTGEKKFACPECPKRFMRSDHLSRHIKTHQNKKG
Test: EMSA
Conditions: tags: MBP fusion
experimentalReadout: pKd
Hey, just a heads up that pKd is the negative log base 10 of the concentration in molar.

So what does the record say about pKd for GGGGAAGGG (dsDNA) DNA 1: GGGGAAGGG DNA 2: CCCTTCCCC ?
8.30
